Tested on: RSV (Long)
protocolNotes: RSV cytopathic effect (CPE)-based viral replication assay in HEp-2 cells
settings: human respiratory syncytial virus, 72 h; HEp-2 cells infected with RSV Long at MOI 0.015, 3 days, cell viability by CellTiter-Glo; read-out: Ec50 (nM) Example A
assayMetric: EC50 (nM)

(1) Cc1cc(CN(C)c2nc(Cn3c(=O)c4ccccc4c4ccccc43)nc3ccccc23)on1
(2) Cc1cc2n(Cc3nc(N(C)CC4CCOC4)c4ccccc4n3)c(=O)c3ccccc3n2n1 (centres unmarked)
Input line: Please compare: 1 and 2 . Report which one has the smaller EC50 value. Your answer should be the label attached to the chosen record.
Output line: 2
(2: 26 nM, 1: 280 nM)
